// data source = patent US9617244B2

Where a name gives a salt, the structure may show the parent alone.
OBSERVED PROPERTY: melting point (°C)

{"COMPOUND": "C=CC1CC(O)(C(c2ccc(Cl)cc2)c2cc3cc(Br)ccc3nc2OC)CCN1 (centres unmarked) [Compound 373]", "melting point [°C]": 193}
{"COMPOUND": "CSc1nc2ccc(Br)cc2cc1C(c1ccc(Cl)cc1)C1(O)CCNC(Cc2ccccc2)C1 (centres unmarked) [Compound 87]", "melting point [°C]": 227}
{"COMPOUND": "COc1nc2ccc(Cl)cc2cc1C(c1ccc(Cl)cc1)C1(O)CCNC(Cc2ccccc2)C1 (centres unmarked) (as salt: fumarate) [Compound 94]", "melting point [°C]": 168}
{"COMPOUND": "COc1nc2ccc(Br)cc2cc1C(c1ccc(Cl)cc1)C1(O)CCN(Cc2ccccc2)C(Cc2ccccc2)C1 (centres unmarked) (as salt: fumarate) [Compound 76]", "melting point [°C]": 148}
{"COMPOUND": "COc1nc2ccc(S(C)(=O)=O)cc2cc1C(c1ccc(Cl)cc1)C1(O)CCNC(Cc2ccccc2)C1 (centres unmarked) [Compound 38]", "melting point [°C]": 130}

a: COc1nc2ccc(S(C)(=O)=O)cc2cc1C(c1ccc(Cl)cc1)C1(O)CCNC(Cc2ccc(F)cc2)C1 (centres unmarked) [Compound 389]
b: O=c1[nH]c2ccc(Br)cc2cc1C(c1ccc(Cl)cc1)C1(O)CCNC(Cc2ccc(F)c(F)c2)C1 (centres unmarked) (as salt: hydrochloride) [Compound 134]
When their melting point values are compared, which is larger, a or b ? Mark your selection by writing its label. b
(b: 233 °C, a: 128 °C)
